For each entry below, report its GI50 value.
Test system: NCI-H522
Assay: NCI tumour cell line growth inhibition, 48 h
Activity calls are given as the source filed them. Rule as the data show it: active = GI50 up to about 1.1 µM and inactive = higher. Numbered stars: 1 amine (or outer) side, 2 acyl side, 3 side chain; on linkers, the order of the positions; unused ones are H or OH. Bridge positions count the residues as written; N and C are the ends. Square brackets hold non-standard residues; d marks the D form. Peptide text beside a SMILES is read from it. * marks the point of attachment. ξ: configuration not given here. X33 = O=C(C(CCCCNO[*:3])N[*:1])[*:2]; Fmoc = O=C(OCC1c2ccccc2-c2ccccc21)*; ξW = NC(Cc1c[nH]c2ccccc12)C(=O)O; ξP = O=C(O)C1CCCN1

Exam item: Dear colleague, I am looking for the recorded GI50 of the following compound: "O=c1cc(-c2ccccc2)nc(/C=C(\O)c2ccncc2)n1-c1ccccc1"
Marked response: > 100 µM (inactive)

Exam item: Dear colleague, I am looking for the recorded GI50 of the following compound: "CCOP(=O)(OCC)/C(C#N)=C/c1cnc[nH]1"
Marked response: > 100 µM (inactive)

Exam item: Dear colleague, I am looking for the recorded GI50 of the following compound: CC(=O)OC1[C@H](n2ccnc2)C[C@H]2[C@@H]3CC=C4CC(N5CCCC5)CC[C@]4(C)[C@H]3CC[C@]12C (stereo partly drawn)
Marked response: 24.1 µM (inactive)

Exam item: Dear colleague, I am looking for the recorded GI50 of the following compound: COc1cc(NS(C)(=O)=O)ccc1Nc1c2ccccc2nc2c1[nH]c1ccc(NC3OC(CO)C(O)C(O)C3O)cc12 (stereo not drawn)
Marked response: 0.0923 µM (active)

Exam item: Dear colleague, I am looking for the recorded GI50 of the following compound: "O=C(N/N=C/c1ccc([N+](=O)[O-])cc1)Nc1ccc(C(=O)O)cc1"
Marked response: 7.85 µM (inactive)

Exam item: Dear colleague, I am looking for the recorded GI50 of the following compound: "Cc1nc2ccc(NCCN(C)C)c3c(=O)c4cc(O)ccc4n1c23"
Marked response: 0.112 µM (active)

Exam item: Dear colleague, I am looking for the recorded GI50 of the following compound: "COc1ccc(/C=N/N=C(\N)NO)c(Cl)c1O"
Marked response: 6.82 µM (inactive)

Exam item: Dear colleague, I am looking for the recorded GI50 of the following compound: CSc1nc(Br)nc2ncn(C3CC(Oc4ccc(C)cc4)C(COc4ccc(C)cc4)O3)c12 (stereo not drawn)
Marked response: > 100 µM (inactive)

Exam item: Dear colleague, I am looking for the recorded GI50 of the following compound: "CCOP(=O)(OCC)[C@H]1OC(C)(C)O[C@@H]1CO"
Marked response: > 100 µM (inactive)

Exam item: Dear colleague, I am looking for the recorded GI50 of the following compound: "COc1cc([C@@H]2c3cc4c(cc3[C@@H](Nc3ccccc3C(=O)c3ccccc3)[C@H]3COC(=O)[C@H]23)OCO4)cc(OC)c1OC"
Marked response: 0.31 µM (active)

Exam item: Dear colleague, I am looking for the recorded GI50 of the following compound: "CCOc1cccc2sc(N)nc12"
Marked response: > 100 µM (inactive)

Exam item: Dear colleague, I am looking for the recorded GI50 of the following compound: NC(=O)CNC(=O)C1CCCN1C(=O)C1CCCCNOC(=O)CC[C@@H](NC(=O)OCC2c3ccccc3-c3ccccc32)C(=O)NC(Cc2c[nH]c3ccccc23)C(=O)N1 (stereo partly drawn) (Fmoc-[dE][ξW][X33][ξP]G-NH2; ester 1-3)
Marked response: > 100 µM (inactive)

Exam item: Dear colleague, I am looking for the recorded GI50 of the following compound: "N#Cc1nnn(-c2ccccc2)c1O"
Marked response: > 100 µM (inactive)

Exam item: Dear colleague, I am looking for the recorded GI50 of the following compound: CC(=O)OCC1OC(N2C(=O)C(=O)c3ccccc32)C(OC(C)=O)C(OC(C)=O)C1OC(C)=O (stereo not drawn)
Marked response: > 100 µM (inactive)

Exam item: Dear colleague, I am looking for the recorded GI50 of the following compound: "CCOC(=O)/C(C#N)=C1/C(O)=C(C(=O)OC)C(C(=O)OC)=C1C(=O)OC.c1ccncc1"
Marked response: > 100 µM (inactive)

Exam item: Dear colleague, I am looking for the recorded GI50 of the following compound: "C=CCN(C(C)=O)c1cc(OCc2ccccc2)c2c(c1)c(C)cn2S(=O)(=O)c1ccccc1"
Marked response: 4.08 µM (inactive)

Exam item: Dear colleague, I am looking for the recorded GI50 of the following compound: CC(=O)OC1CC2OC(Cc3ccccc32)O1 (stereo not drawn)
Marked response: > 100 µM (inactive)

Exam item: Dear colleague, I am looking for the recorded GI50 of the following compound: "CCN(CC)/[N+]([O-])=N/OCOC"
Marked response: > 100 µM (inactive)

Exam item: Dear colleague, I am looking for the recorded GI50 of the following compound: "Oc1ccc(-c2cc(-c3cc(-c4ccc(O)cc4)no3)on2)cc1"
Marked response: 19.7 µM (inactive)

Exam item: Dear colleague, I am looking for the recorded GI50 of the following compound: CC(C)C1=CC23CCC4C(C)(C(=O)O)CCCC4(C)C2CC1C1C(=O)N(c2ccc(C(=O)O)cc2)C(=O)C13 (stereo not drawn)
Marked response: > 100 µM (inactive)

Exam item: Dear colleague, I am looking for the recorded GI50 of the following compound: "Cc1c(C)c2cc3c(=O)c(CCl)coc3c(C)c2oc1=O"
Marked response: 95.3 µM (inactive)

Exam item: Dear colleague, I am looking for the recorded GI50 of the following compound: "O=C1Sc2ccccc2NC1=C(C(=O)c1ccccc1)C(=O)c1ccccc1"
Marked response: 18.4 µM (inactive)

Exam item: Dear colleague, I am looking for the recorded GI50 of the following compound: "Cc1ccc(/C=C2\CNC/C(=C\c3ccc(C)cc3)C2=O)cc1"
Marked response: 1.87 µM (inactive)

Exam item: Dear colleague, I am looking for the recorded GI50 of the following compound: O=C1CC(Br)c2c(Br)sc(Br)c21 (stereo not drawn)
Marked response: 12.1 µM (inactive)

Exam item: Dear colleague, I am looking for the recorded GI50 of the following compound: "CCOc1ccc2ccc3cccnc3c2n1"
Marked response: > 100 µM (inactive)

Exam item: Dear colleague, I am looking for the recorded GI50 of the following compound: "Cc1cccc(CNc2[nH]cnc3nncc2-3)c1"
Marked response: 56.5 µM (inactive)

Exam item: Dear colleague, I am looking for the recorded GI50 of the following compound: "CC(C)(C)C(=O)/C=C(\OB(F)F)C(C)(C)C"
Marked response: > 100 µM (inactive)

Exam item: Dear colleague, I am looking for the recorded GI50 of the following compound: COc1cc(OC)c2c(c1)OC(c1cccnc1)C(c1ccccc1)C2=O (stereo not drawn)
Marked response: 72.1 µM (inactive)

Exam item: Dear colleague, I am looking for the recorded GI50 of the following compound: O=C1C2=C(CCCCC2)C2CCCCC12O (stereo not drawn)
Marked response: > 100 µM (inactive)

Exam item: Dear colleague, I am looking for the recorded GI50 of the following compound: O=c1[nH]c(=O)n(C2CC(O)C(CO)O2)cc1/N=N/NCc1ccccc1 (stereo not drawn)
Marked response: > 100 µM (inactive)

Exam item: Dear colleague, I am looking for the recorded GI50 of the following compound: CCOc1ccc(NC(=O)/C(=N\NC(C)(C)C)C2C(=O)Nc3ccccc3[S+]2[O-])cc1 (stereo not drawn)
Marked response: > 100 µM (inactive)

Exam item: Dear colleague, I am looking for the recorded GI50 of the following compound: "NC(=O)C1=C(c2ccccc2)c2ccccc2C1=O"
Marked response: 18.6 µM (inactive)

Exam item: Dear colleague, I am looking for the recorded GI50 of the following compound: "CCn1c(=O)c2c3ccc(O)cc3[nH]c2c2ccc(O)cc21"
Marked response: 93.3 µM (inactive)

The reported numbers originate from ChEMBL document CHEMBL1201862.
